Each recorded value in this set is attributed to PubChem BioAssay AID1159580.

Below is a list of entries, each paired with its recorded normalized growth value.
# Protocol description: chemical genetic growth profiling, strain panel (AID 1159580);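 also: tested at 20 µM; growth read once vehicle control cultures reached saturation at 30 °C; 1 = growth at the plate median or of vehicle wells; lower values mean less growth of the strain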
# Measurement setup: S. cerevisiae deletion strains, growth OD, locus YGR135W, strain pre9, active compounds read low
Screen size: about 5,500 compounds; about 2,000 (36%) were called active. About 18% were inconclusive and are not listed. The list shows a part of the results.
No unit in the answer, only the number.

Reference set, count: 4
CC(COc1ccccc1)N(CCCl)Cc1ccccc1 (stereo not drawn)
1.01
CC[C@@H](C(=O)O)[C@@H]1O[C@@H]([C@@H](C)[C@H](O)[C@H](C)C(=O)[C@H](CC)[C@H]2O[C@]3(C=C[C@@H](O)[C@]4(CC[C@@](C)(C5CC[C@](O)(CC)[C@H](C)O5)O4)O3)[C@H](C)C[C@@H]2C)[C@@H](C)C[C@H]1C (stereo partly drawn)
0.781
O=C(O)c1cc(=O)c(O)c2c(O)c(O)ccc2c1
0.993
CCCN(CCC)C(=O)C(CCC(=O)O)NC(=O)c1ccccc1 (stereo not drawn)
0.989

Sure, the documented normalized growth for CC[C@@H](C(=O)[C@@H](C)[C@@H](O)[C@H](C)[C@@H]1O[C@@H]([C@@H](CC)C(=O)O)CC[C@@H]1C)[C@H]1OC2(C=C[C@@H](O)[C@]3(CC[C@@](C)([C@H]4CC[C@](O)(CC)[C@H](C)O4)O3)O2)[C@H](C)C[C@@H]1C (stereo partly drawn) is 0.932

Sure, the documented normalized growth for O=C(O)c1cc(O)c(O)c(O)c1 is 1.07

Sure, the documented normalized growth for CC1CC2C(C(O)CC3(C)C2CCC3(O)C(=O)COC(=O)CCC(=O)O)C2(C)C=CC(=O)C=C12 (stereo not drawn) is 0.982

Sure, the documented normalized growth for COc1cc(C(=O)O)cc(OC)c1O is 1.05

----------
# Protocol description: chemical genetic growth profiling, strain panel (AID 1159580)
# Measurement setup: S. cerevisiae deletion strains, growth OD, locus YEL061C, strain CIN8 (second series), active compounds read low
Out of some 5,500 compounds screened, about 2,000 (36%) were called active. Inconclusive results (about 18%) are left out. Some of the results follow.
Below is a list of entries, each paired with its recorded normalized growth value.
No unit in the answer, only the number.

Reference set, count: 6
NCCCCN=C(N)N
1.03
CC(=O)O[C@H]1CC[C@@]2(C)C(=CCC3C2CC[C@]2(C)C(=O)CCC32)C1 (stereo partly specified)
1.02
NC(=O)N/N=C\c1ccc([N+](=O)[O-])o1
1
O=C(O)c1ccc2c(c1)OCO2
0.988
CN(C)CCCO[C@H]1[C@@H](C(O)CO)OC2OC(C)(C)O[C@@H]21 (stereo partly specified)
0.975
C[C@@H]1CC2C3CCC4=CC(=O)C=C[C@]4(C)[C@@]3(F)[C@@H](O)C[C@]2(C)[C@@]1(O)C(=O)COP(=O)(O)O (stereo partly specified)
0.961

Sure, the documented normalized growth for CC(COc1ccccc1)N(CCCl)Cc1ccccc1 (stereo unspecified) is 0.971

Sure, the documented normalized growth for CCCCC(CC)CN=C(N)NC(N)=NCCCCCCN=C(N)NC(N)=NCC(CC)CCCC (stereo unspecified) is 0.06

Sure, the documented normalized growth for CS(=O)(=O)OCCCCOS(C)(=O)=O is 1.01

Sure, the documented normalized growth for NCc1ccc(S(N)(=O)=O)cc1 is 1

Sure, the documented normalized growth for O=C1N=C(O)CN1/N=C\c1ccc(-c2ccc([N+](=O)[O-])cc2)o1 is 0.97

Sure, the documented normalized growth for CO[C@@H]1[C@@H](O[C@@H]2O[C@H](C)[C@@H](O[C@H]3C[C@@](C)(O)[C@H](O)[C@H](C)O3)[C@H](N(C)C)[C@H]2O)[C@@H](CC=O)C[C@@H](C)[C@@H](O[C@H]2CC[C@H](N(C)C)[C@@H](C)O2)/C=C/C=C/C[C@H](C)OC(=O)C[C@H]1O is 1.01

Sure, the documented normalized growth for CN1CCc2cccc3c2C1Cc1ccc(O)c(O)c1-3 (stereo unspecified) is 0.971

Sure, the documented normalized growth for O=C1CN(/N=C\c2ccc([N+](=O)[O-])o2)C(=O)N1 is 0.969

----------
# Protocol description: chemical genetic growth profiling, strain panel (AID 1159580);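 also: tested at 20 µM; growth read once vehicle control cultures reached saturation at 30 °C; 1 = growth at the plate median or of vehicle wells; lower values mean less growth of the strain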
# Measurement setup: S. cerevisiae deletion strains, growth OD, locus YGL173C, strain kem1, active compounds read low
In all, about 5,500 compounds went through this assay and about 2,000 (36%) were called active. Inconclusive results (about 18%) are left out. The list shows a part of the results.
Measurement name: normalized growth
No unit in the answer, only the number.

Sure, the documented normalized growth for c1ccc2[nH]c(-c3cscn3)nc2c1 is 1.01

Sure, the documented normalized growth for CCOC(N)=O is 0.982

Sure, the documented normalized growth for Nc1nc2ncc(CNc3ccc(C(=O)N[C@@H](CCC(=O)O)C(=O)O)cc3)nc2c(=O)[nH]1 is 0.996

Sure, the documented normalized growth for CCCNC(C)C(=O)Nc1ccccc1C (stereo not given) is 1

Sure, the documented normalized growth for CC(=O)O[C@H]1CC[C@@]2(C)C(=CCC3C2CC[C@]2(C)C(=O)CCC32)C1 (stereo not given in full) is 1

Sure, the documented normalized growth for CC1(C)C2CC(=O)O[C@@]3(C)C4=CC(=O)O[C@@H](c5ccoc5)[C@]4(C)CCC3[C@@]2(C)C=C[C@H]1O (stereo not given in full) is 0.98

Sure, the documented normalized growth for CCn1cc(C(=O)O)c(=O)c2cc3c(cc21)OCO3 is 0.974

Sure, the documented normalized growth for COS(C)(=O)=O is 1

----------
# Protocol description: chemical genetic growth profiling, strain panel (AID 1159580);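 also: tested at 20 µM; growth read once vehicle control cultures reached saturation at 30 °C; 1 = growth at the plate median or of vehicle wells; lower values mean less growth of the strain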
# Measurement setup: S. cerevisiae deletion strains, growth OD, locus YNR052C, strain pop2
The whole screen tested about 5,500 compounds, of which about 2,000 (36%) were called active. Another 18% or so got no clear call; they are omitted. Rule as the data show it: active = normalized growth mostly below about 0.91 (no sharp cut-off); inconclusive = no clear call, values can overlap the other calls; inactive = mostly above about 0.92. Some of the results follow.
Valid outcomes are listed here; reply with one: True (active), False (inactive)

CC(=O)C1=C(O)C2C3c4c[nH]c5cccc(c45)CC3C(C)(C)N2C1=O (stereo not given)
False
C=CCc1cc(OC)c2c(c1OC)OCO2
False
CCOP(=S)(OCC)Oc1ccc2c(C)c(Cl)c(=O)oc2c1
False
COc1ccc(/C=C/c2cc(O)cc(O[C@@H]3O[C@H](CO)[C@@H](O)[C@H](O)[C@H]3O)c2)cc1O
False
O=C(O)CCCCC1SCC2NC(=O)NC21 (stereo not given)
False
CC(COc1ccccc1)N(CCCl)Cc1ccccc1 (stereo not given)
False
C[C@H](COc1ccccc1)N[C@H](C)[C@H](O)c1ccc(O)cc1
False
C#C[C@]1(O)CCC2C3CCc4cc(O)ccc4C3CC[C@@]21C (stereo not given in full)
False

Problem: Please let me know the test result on file for CC(=O)O[C@H]1C[C@@H](OC(C)=O)C(C)(C)C2C[C@@H](OC(C)=O)[C@]3(C)C(CC[C@@]4(C)[C@H](c5ccoc5)C(=O)[C@H]5O[C@]543)[C@]21C (stereo not given in full) .
Result: False

Problem: Please let me know the test result on file for C[C@@H]1CC2C3CCC4=CC(=O)C=C[C@]4(C)[C@@]3(F)[C@@H](O)C[C@]2(C)[C@@]1(O)C(=O)COP(=O)(O)O (stereo not given in full) .
Result: False

Problem: Please let me know the test result on file for O=C(O)CCCCCCCCCCCCC1C=CCC1 (stereo not given) .
Result: False

Problem: Please let me know the test result on file for CC12CCC3C(CC=C4CC(O)CCC43C)C1CCC2=O (stereo not given) .
Result: True

Problem: Please let me know the test result on file for C[C@@]12C(=O)OC(=O)[C@]1(C)C1CCC2O1 .
Result: True

Problem: Please let me know the test result on file for C/C=C/c1ccc(OC)cc1 .
Result: False

Problem: Please let me know the test result on file for CN(Cc1cnc2nc(N)nc(N)c2n1)c1ccc(C(=O)NC(CCC(=O)O)C(=O)O)cc1 (stereo not given) .
Result: False

Problem: Please let me know the test result on file for COc1cc(C(=O)O)c(O)c2c1OCO2 .
Result: False

Problem: Please let me know the test result on file for CCN(CC)CCOC(=O)C(Cc1cccc2ccccc12)CC1CCCO1 (stereo not given) .
Result: False

----------
# Protocol description: chemical genetic growth profiling, strain panel (AID 1159580);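 also: tested at 20 µM; growth read once vehicle control cultures reached saturation at 30 °C; 1 = growth at the plate median or of vehicle wells; lower values mean less growth of the strain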
# Measurement setup: S. cerevisiae deletion strains, growth OD, locus YDL108W, strain KIN28, active compounds read low
The campaign covered roughly 5,500 compounds. About 2,000 (36%) were called active. About 18% were inconclusive and are not listed. This is one part of the list.
Measurement name: normalized growth
No unit in the answer, only the number.

Reference set, count: 2
COc1cc(C(=O)Oc2c(Cl)cc(Cl)cc2C=Nc2ccc([N+](=O)[O-])cc2C#N)cc(OC)c1OC
0.982
CCCCCCCC1CCC/C1=N/OC(=O)c1cccs1 (stereo not given)
0.996

Sure, the documented normalized growth for NC(=NC(=O)c1ccc(Cl)cc1)c1cccs1 is 0.946

Sure, the documented normalized growth for CC12CC[C@@H](O)CC1=CC[C@@H]1C2CCC2(C)C(=O)CC[C@@H]12 (stereo not given in full) is 1.01

Sure, the documented normalized growth for Nc1cc(-c2ccc(OC(F)(F)F)cc2)nn1-c1ccc(Cl)c(Cl)c1 is 1.01

Sure, the documented normalized growth for COc1cc(N=Cc2cc(Cl)cc(Cl)c2OC(=O)c2cc(OC)c(OC)c(OC)c2)c(OC)cc1Cl is 0.945

Sure, the documented normalized growth for COCCOc1ccccc1NC(=S)SCCSC(=S)Nc1ccccc1OCCOC is 0.97

Sure, the documented normalized growth for CSc1c(C#N)c(-c2ccc(Cl)cc2)nn1C(=O)c1ccccc1Cl is 0.954

Sure, the documented normalized growth for C/C(=N/OC(=O)Nc1ccc(Cl)cc1)c1ccc2c(c1)CCO2 is 0.966

Sure, the documented normalized growth for CCc1cc2c(cc1-c1csc(C/C(N)=N\O)n1)C(C)(C)CCC2(C)C is 0.968
